Test system: Wistar rats
measurement-notes: Acetic Acid-Induced Writhing in Rats Test
Type: in vivo
stated-conditions: Rattus norvegicus, ip, 0.5 ml 1% acetic acid i.p., compound given 15 min after acetic acid, writhes counted 60-75 min after acetic acid, dose reducing to less than 16 writhes in 50% of the animals, read-out: Writhing in Rats Test ED50 in mg/kg body weight
metric-name: ED50 (mg/kg)
Number in mg/kg, nothing else.

| molecule | ED50 [mg/kg] |
| --- | --- |
| COc1ccc(/C=C/CN2CCN(c3cccnn3)CC2)cc1 | 40 |
| Clc1ccc(N2CCN(C/C=C/c3ccccc3)CC2)nn1 | 5 |
| C(=C\c1ccccc1)/CN1CCN(c2cccnn2)CC1 | 2.5 |
| COc1ccc(N2CCN(C/C=C/c3ccccc3)CC2)nn1 | 5 |
| CC1CN(C/C=C/c2ccccc2)CCN1c1ccc(Cl)nn1 (stereo not shown) | 5 |

If you can, please state the reported ED50 value of `[O-][N+]1(C/C=C/c2ccccc2)CCN(c2ccc(Cl)nn2)CC1` .
10

If you can, please state the reported ED50 value of `Brc1ccc(N2CCN(C/C=C/c3ccccc3)CC2)nn1` .
10

If you can, please state the reported ED50 value of `C(=C\c1ccccc1)/CN1CCCN(c2ccc(-c3ccccc3)nn2)CC1` .
10

If you can, please state the reported ED50 value of `Fc1ccc(/C=C/CN2CCN(c3ccc(Cl)nn3)CC2)cc1` .
20

If you can, please state the reported ED50 value of `Cl.Cl.Clc1ccc(N2CCN(C/C=C/c3ccccc3)CC2)nn1` .
10

====

System: Wistar rats
measurement-notes: Acetic Acid-Induced Writhing in Rats Test
Format: in vivo
stated-conditions: Rattus norvegicus, ip, 0.5 ml 1% acetic acid i.p., compound given 15 min after acetic acid, writhes counted 60-75 min after acetic acid, dose reducing to less than 16 writhes in 50% of the animals, read-out: Writhing in Rats Test ED50 in mg/kg body weight
Experimental: The Acetic Acid-Induced Writhing in Rats Test is known to be a useful tool for the evaluation of the analgesic properties of given test compound (see in connection herewith Drug Research, 25, 1505-1509 (1975)). Wistar rats weighing about 100g were used throughout. They were injected i.p. with 0.5 ml of a 1% aqueous solution of acetic acid and placed in individual glass containers for observation. […] 5 Min. later (15 min. after the acetic acid treatment) the test compound was administered. […]
metric-name: ED50 (mg/kg)
Number in mg/kg, nothing else.

| mol-smiles | metric-name | val |
| --- | --- | --- |
| Clc1ccc(N2CCN(C/C=C/c3cccs3)CC2)nn1 | ED50 | 10 |
| COc1ccc(/C=C/CN2CCN(c3ccc(Cl)nn3)CC2)cc1 | ED50 | 40 |
| Clc1ccc(N2CCCN(C/C=C/c3ccccc3)CC2)nn1 | ED50 | 20 |
| Fc1ccc(/C=C/CN2CCN(c3cccnn3)CC2)cc1 | ED50 | 40 |
| Cc1ccc(/C=C/CN2CCN(c3ccc(Cl)nn3)CC2)cc1 | ED50 | 40 |
| Clc1ccc(/C=C/CN2CCN(c3ccc(Cl)nn3)CC2)cc1 | ED50 | 40 |

Please look at the following compound next.
Missing value: ED50, Wistar rats, entry `COc1ccc(N2CCN(C/C=C/c3ccc(F)cc3)CC2)nn1` . Fill in?
10

src = patent EP0211457A2
